Where these numbers come from: PubChem BioAssay (NCI)

experimentalProtocol: NCI Yeast Anticancer Drug Screen. Data for the mlh1 rad18 strain (AID 175)
measurementSetup: S. cerevisiae mlh1 rad18 strain growth inhibition; at 50.0 µM
About 79,000 compounds went through this panel and 15% of them were active in at least one assay; those are over-represented in the sample as a whole. Calls of active or inactive are those of the source. Cut-off read from the data, not from the text of the source: active = growth inhibition above about 70%; inactive = the rest.
// one of active, inactive, no free text

Solved cases below.
NC(=O)c1ncn(C2OC(CO)C(O)C2O)c1NC=O (stereo not given) :: inactive
COc1ccc2c(c1OC)C(O)N1CCc3cc4c(cc3C1=C2C(=O)c1ccccc1)OCO4 (stereo not given) :: inactive
CCCCCCCCCCCC[N+]1(C)CCS(=O)CC1 (stereo not given) :: active
CNC(=S)N(C1CCCCC1)C1CCCCC1 :: inactive

q: Assay outcome for Nc1nc(SCc2ccccc2[N+](=O)[O-])c2[nH]cnc2n1 : what was it?
a: inactive

q: Try this compound too: O=C(O)CC1CCCc2ccccc2C1=O (stereo not given)
a: inactive

q: Next: O=C(N/N=C1\CCc2ccccc2C1)N/N=C1\CCc2ccccc2C1
a: inactive

q: Field entry: c1ccc(C2c3ccccc3-c3ncnc(N4CCCCC4)c32)cc1 (stereo not given)
a: inactive

q: What do you get for N#CC1(C(N)=O)OC1c1ccccc1Cl (stereo not given) ?
a: inactive

q: C=Cc1c(Cl)cccc1Cl , same question.
a: inactive

q: Can you check O=C(O)C(C(=O)O)C1CCCCC1 next?
a: inactive

q: Do the same for CCOC(OC(C)=O)[C@@H]1C=C[C@H](C)N(c2ccc([N+](=O)[O-])cc2)O1 (stereo not given in full) please
a: inactive

q: Then CN1C(=O)CC2(C)c3cc(O)cc(Br)c3N(C)C12 (stereo not given) ?
a: inactive

q: Also O=C(O)CNC1CCCC1 , if possible.
a: inactive

q: Another compound to look at: N#CC(C(=O)O)=C1CCCCCC1
a: inactive

q: Another compound to check: O=CNC(NC=O)NC=O
a: inactive

q: Another compound to check: CCCCCCCCCCCCCCCCN1C(=O)c2ccccc2S1(=O)=O
a: inactive

q: Then this compound: CCOC(=C\C=C\C1=[N+](C)c2ccccc2C1(C)C)/C=C/C=C1/N(C)c2ccccc2C1(C)C
a: inactive

q: Also CN(C)CCSc1nc2ccccc2s1 ?
a: inactive

q: Repeat with Cc1c(O)c([N+](=O)[O-])cc2c1OCOC2
a: inactive

q: Same question, CC(=S)N=Cc1c(N)[nH]n(-c2ccccc2)c1=O this time
a: inactive

q: Please do the same for O=C(O)c1cccc([N+](=O)[O-])c1Nc1cccc(C(F)(F)F)c1 as well.
a: inactive

q: Subsequent entry: C=CNC(=S)n1nc(-c2ccccc2NC(=O)C(F)(F)F)c(=O)n(C(=S)NC=C)c1=S
a: inactive

q: # iterate: C=C(C)c1ccc(B2Nc3ccccc3N2)cc1
a: inactive

q: Now consider CC(C)CC(N)C(=O)NC(Cc1c[nH]c2ccccc12)C(N)=O (stereo not given) .
a: inactive

---

// values below are reported growth inhibition
experimentalProtocol: NCI Yeast Anticancer Drug Screen. Data for the bub3 strain (AID 167)
measurementSetup: S. cerevisiae bub3 mutant strain, at 50.0 µM, stronger effect = higher value
About 79,000 compounds went through this panel and 15% of them were active in at least one assay; those are over-represented in the sample as a whole.
Please state the figure in %; there is no need to write the unit.

Would you please look over these solved cases?
CC(=O)c1ccc(N=Nc2ccc3nonc3c2N)cc1 :: 5.25
COC(=O)c1c(C(=O)OC)c(C(c2ccccc2)c2ccccc2)n(-c2ccccc2)c1Cl :: -18.3
O=C(CCCCCCCCC(=O)NO)NO :: -2.95
CCC(C)C(NCc1ccccc1)C(=O)O (stereo unspecified) :: -18.4
Cc1occc1C(=S)Nc1ccc(Cl)c(C(=O)OC2CCCC2)c1 :: 46.4
Cc1cc(C)nc(NS(=O)(=O)c2ccc(NC(=O)c3cccc4c(Nc5ccc(S(=O)(=O)N=C(N)N)cc5)c5ccc(Cl)cc5nc34)cc2)n1 :: 13
N#CCc1ccccc1-c1ccccc1 :: 5.6
Oc1ccc(-c2nc(-c3cccnc3)c(-c3ccc(Cl)cc3)[nH]2)cc1 :: 39.6

q: // lookup growth inhibition for CCC/C=N/NS(=O)(=O)c1ccc(C)cc1
a: -29.9

q: Queued: COc1ccc(OC)c(CCCC(=O)O)c1
a: 2.05

q: Continue with CC(C)(c1ccccc1)C(C)(C)c1nc(-c2ccccc2)cc(-c2ccccc2)n1
a: -0.95

---

experimentalProtocol: NCI Yeast Anticancer Drug Screen. Data for the bub3 strain (AID 167)
measurementSetup: S. cerevisiae bub3 mutant strain, at 50.0 µM, stronger effect = higher value
Description: Growth inhibition of yeast strains with defined genetic alterations is measured as a screen for potential anti-cancer activity. Selected strains with alterations in DNA damage repair or cell cycle control were exposed to compounds and growth inhibition was measured relative to vehicle treated controls. The strain used in this assay is bub3
Compounds without any hit were thinned out: in the full panel of roughly 79,000, 15% have a hit.
Reported values of growth inhibition for individual entries
Numeric answer only, unit % assumed.

Example compounds with recorded growth inhibition:
Cc1cccc(Nc2nc(NNC(=O)Cc3ccccc3)nc(NNC(=O)c3ccncc3)n2)c1 :: 22.6
CC(C)(C)OC(=O)NC(C)(C)C(=O)NCCC(=O)O :: -15.2
Nc1nc(-c2ccccc2)nc(-c2ccccc2)n1 :: -21.7
Cc1ccc(Oc2ccc(C(=O)c3cccc(C(=O)c4ccc(Oc5ccc(C)cc5)cc4)n3)cc2)cc1 :: -15.3
CCc1ccccc1OCC(O)CO (centres undefined) :: -8.85

q: Give its growth inhibition value. Item: CC(C)(O)/C1=C/C=C/CCCCCCCCCC1
a: 14.8

q: # iterate: Cc1ccc(C(N)=Nc2ccccc2)cc1
a: 3.3

q: Now give it for O=C1CC(c2ccc(Cl)cc2)C(=O)O1 (centres undefined) too.
a: -23.4

q: For CC(Oc1ccccc1)C(=O)NNC(=O)OC(C)(C)C (centres undefined) then?
a: -18.6

q: Now try C[C@]12CCC(=O)C=C1CC[C@@H]1[C@@H]2C(=O)C[C@@]2(C)[C@H]1CC[C@]2(O)C(=O)C=O .
a: -10.8

q: Can you handle CC(=O)N1CCc2[nH]c3ccccc3c2CC1 next?
a: -3.1

q: Likewise for O=C(Oc1c(Cl)cc(Cl)cc1Cl)c1ccc([N+](=O)[O-])cc1 ?
a: -9.45

q: Then what about the compound CCOC(=O)Nc1ccc(Cl)cc1Cl ?
a: -8.75

q: Request: CCOC(=O)c1c(-c2ccc([N+](=O)[O-])cc2)c(C#N)n(-c2ccccc2)c1C
a: 45.1

q: Another compound to check: CCOC(=O)/C=C/C(=O)NNS(=O)(=O)CCC(N)C(=O)O (centres undefined)
a: 6.8

q: Next compound: Cc1cc(C(=O)O)c(C#N)c(=O)n1C
a: -12

q: Query O=[N+]([O-])c1ccc(F)c(Cl)c1 next
a: 9.3

q: Same for Cc1cccc(C)c1NC(=O)N(Cc1ccccc1)Cc1ccccc1
a: 36.7

q: Can you check O=C1Oc2cc3c(c4cccc1c24)OCN(c1ccc(Cl)cc1)C3 next?
a: 33

q: And for O=C(CCC(=O)OCC1CCCO1)OCC1CCCO1 (centres undefined) ?
a: 5.75

q: Continue with COC(=O)C12CCC(C(=O)OC)(CC1)n1c(=O)n(-c3ccccc3)c(=O)n12
a: -1.85

q: Query Nc1ncc2ncn(C3CCC(CO)O3)c2n1 (centres undefined) next
a: -10.8

q: Further, for CN(C)c1ccc(C2(c3ccc(N(C)C)cc3)c3ccccc3C(=O)N2N)cc1 ?
a: 77.5

q: Now the same for CC1(C)OCC2OC(n3cnc4c(N)nc(Cl)nc43)C(OS(C)(=O)=O)C2O1 (centres undefined)
a: 4.15

---

experimentalProtocol: NCI Yeast Anticancer Drug Screen. Data for the rad50 strain (AID 155);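 note: 0% = growth of vehicle-only cultures of the same strain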
measurementSetup: S. cerevisiae rad50 strain growth inhibition; at 50.0 µM; stronger effect = higher value
About 79,000 compounds went through this panel and 15% of them were active in at least one assay; those are over-represented in the sample as a whole.
Recorded growth inhibition, one value per entry.
// note: answer is a bare numeric in %

Some molecules with recorded growth inhibition:
CCOC(=O)c1ccccc1O :: -17.8
COc1ccccc1NC(=O)Oc1ccc(C#N)cc1 :: 7.2
OC(CCN1CCC2CCC(C2)C1)(c1ccccc1)c1ccc(Cl)cc1 (stereo not drawn) :: -4.55
C/C(C(=O)O)=C1\N=C(N)NC1=O :: -3.25
CCCCCCCCCC(=O)N/N=C/c1ccccc1Cl :: 9.95

q: Could you share which growth inhibition value was measured for CCCCOc1cc(C(=O)O)ccc1[N+](=O)[O-] ?
a: -10.7

q: Next molecule: O=C(c1ccc(Cl)cc1)c1ccc2ccccc2c1
a: -5.3

q: Would you kindly repeat that for COP(=O)(O)OP(=O)(O)OC ?
a: 1.2

q: # iterate: C[Si](C)(OCCS(=O)(=O)O)C1S(=O)(=O)OCCOS1(=O)=O
a: -18.7

q: Input O=C1OC(c2ccc([N+](=O)[O-])cc2)=N/C1=C\c1cc(Br)ccc1O
a: 52.8

q: Okay, and CCCCC[N+]1([O-])CCOCC1 ?
a: 4.05

q: Now try CCCCCCc1ccc2c3cccc4cccc(c5cccc1c52)c43 .
a: -9.25

q: Also, C/C(=N/NC(N)=O)c1cn[nH]c1C please.
a: -27.6
